- methodSummary: Potency in adjuvant-induced arthritis assay/ potency in intestinal toxicity assay.
- testSettings: read-out: Therapeutic index
measuredMetric: selectivity ratio

- O=C(O)Cc1cccc(C(=O)c2ccc(Cl)cc2)c1[N+](=O)[O-]: 3.4

---

- Species on record: Rattus norvegicus
- methodSummary: Pharmacological potency relative to indomethacin for prodrug candidate by adjuvant-induced arthritis assay
- Format: functional
Collected Potency values appear next to each entry.
measuredMetric: Potency

- CCOC(=O)Cc1cccc(C(=O)c2ccc(Cl)cc2)c1NC(=O)C(F)(F)F: 1
- Nc1c(CC(=O)[O-])cccc1C(=O)C1CCCCC1.[Na+]: 0.004
- O=C(O)Cc1cccc2c(-c3ccc(Cl)cc3)onc12: 1
- Nc1c(CC(=O)[O-])cccc1C(O)c1ccc(Cl)cc1.[Na+] (stereo unspecified): 0.002
- O=C(O)Cc1cccc(C(=O)c2ccc(Cl)cc2)c1[N+](=O)[O-]: 1.7
- O=C(O)Cc1cccc2c(-c3ccccc3)onc12: 0.6
- NC(=O)Cc1cccc(C(=O)c2ccc(Cl)cc2)c1N: 0.8
- CCOC(=O)Cc1cccc(C(=O)c2ccc(Cl)cc2)c1N: 1
- Nc1c(CC(=O)[O-])cccc1C(=O)c1ccccc1.[Na+] [AMFENAC SODIUM]: 1.1
- Nc1c(CC(=O)[O-])cccc1C(O)c1ccccc1.[Na+] (stereo unspecified): 0.001
- Nc1c(C(=O)CCC(=O)O)cccc1C(=O)c1ccc(Cl)cc1: 0.9

Origin of values: ChEMBL document CHEMBL1124887
